Test: Antioxidant activity against Fe3+/ascorbic acid system generated hydroxyl radicals assessed as inhibition of formaldehyde production at 0.1 mM
Assay type: functional
Parameters: scale not given: the % may be the effect or the level left
The source made the active and inactive calls. The rule behind the calls is not given here.
readout kind: Activity

Examples with their reported Activity follow.
compound	Activity
COC(=O)c1cc(=O)oc2cc3c(cc12)OCO3	78%
COC(=O)c1cc(=O)oc2c3c(ccc12)OC(C)(C)C3	72%
COC(=O)c1cc(=O)oc2c3c(ccc12)CCCC3	inactive
Cc1c(C)c2c(c(C)c1O)CCC(C)(C(=O)O)O2 (stereo not drawn)	88%
COC(=O)c1cc(=O)oc2cc3c(cc12)CCCC3	74%

Please give Activity, item by item, for the list that follows.
1. O=c1ccc2ccc3c(c2o1)CCCC3
2. COC(=O)c1cc(=O)oc2cc3c(cc12)CCC3
3. COC(=O)c1cc(=O)oc2ccc3c(c12)CCCC3

OUTPUT:
inactive
64%
53%
